Listed compounds paired with reported TGI
System: A498 renal
Experiment: NCI tumour cell line growth inhibition, 48 h
Measurement kind: TGI (µM)

In [3]: df
Out[3]:
                                   compound  measurement_kind  reported_relation  measured_number
0  COc1cc(Nc2nc3cc(C(F)(F)F)ccc3nc2C)cc(OC)c1OC               TGI                  =             18.8
1  COc1ccccc1NC(=O)C(CC(C(=O)Nc1ccccc1OC)/C(C)=N/NC(=O)c1ccccc1O)/C(C)=N/NC(=O)c1ccccc1O (stereo not given)               TGI                  >              100
2                      O=S(=O)(CCCCl)SCCCCl               TGI                  >              100
3  C=CCSSc1ncnc2c1ncn2C1OC(CO)C(O)C1O (stereo not given)               TGI                  >              100
4       CC(=O)[O][Bi]([c]1ccccc1)[c]1ccccc1               TGI                  =             32.4
5  C[C@@H]1OCC2(CCN(c3cnc(Sc4ccnc(N)c4Cl)c(N)n3)CC2)[C@@H]1N               TGI                  =              4.6
6                  N#CSc1ccc(S(N)(=O)=O)cc1               TGI                  >              100
7  COc1ccc(C(SCC(N)C(=O)O)(c2ccc(OC)cc2)c2ccc(OC)cc2)cc1 (stereo not given)               TGI                  =             22.7
8  C/C(=N/NC(N)=S)C(CN(C)C)C(C1=C(O)c2ccccc2OC1)c1ccccc1 (stereo not given)               TGI                  >              100
9  C=C1C(=O)O[C@H]2[C@H]1CC/C(COC(=O)NCc1cc(OC)cc(OC)c1)=C\CC[C@@]1(C)O[C@@H]21               TGI                  =              5.8
